Measured Metric: melting point

Some entries whose results are on file:
O=C(/C=C(\O)c1nc[nH]n1)c1cn(S(=O)(=O)c2cc(Cl)ccc2Cl)c2ccc(Cl)cc12 301 to 302 °C
CNC(=CC(=O)c1cn(Cc2ccccc2)c2ccc(Cl)cc12)C(=O)O 205 to 210 °C (dec.)
CCOC(=O)C(N)=CC(=O)c1c[nH]c2ccccc12 200 to 205 °C

Please give the documented melting point of O=C(/C=C(\O)c1nc[nH]n1)c1cn(S(=O)(=O)c2ccccc2)c2ccc(Br)cc12 290 to 295 °C (dec.)

Please give the documented melting point of O=C(C=C(O)c1nn[nH]n1)c1cn(Cc2ccccc2)c2ccc(Cl)cc12 > 240 °C

Please give the documented melting point of O=C(/C=C(\O)c1nccs1)c1cn(S(=O)(=O)c2ccccc2)c2ccc(Cl)cc12 191 to 194 °C

Please give the documented melting point of O=C(O)c1cccc(C(O)=CC(=O)c2c[nH]c3ccc(Cl)cc23)c1 > 270 °C (dec.)

Please give the documented melting point of O=C(/C=C(\O)c1nc[nH]n1)c1cn(S(=O)(=O)c2ccccc2)c2cc(Cl)ccc12 265 to 270 °C

Please give the documented melting point of O=C(O)c1cccc(C(O)=CC(=O)c2cn(S(=O)(=O)c3ccccc3)c3ccc(Cl)cc23)c1 245 to 255 °C (dec.)

Please give the documented melting point of O=C(C=C(O)c1nn[nH]n1)c1cn(S(=O)(=O)c2cccs2)c2ccc(Cl)cc12 243 °C

Please give the documented melting point of COc1ccccc1Cn1cc(C(=O)/C=C(\O)c2nn[nH]n2)c2cc(Cl)ccc21 256 °C (dec.)
